Reference source: patent US7067277

- test.target: human GLP-1 receptor (human, UniProt P43220 24-463)
- assay.notes: cell-based or functional assay
value.type: max Ca2+ signal, COS-7, FLIPR; agonist GLP-1 (fluorescence units)
Answers are plain numbers, in fluorescence units.

# return recorded max Ca2+ signal, COS-7, FLIPR; agonist GLP-1 for entry C. elegans Gαq/s21 (other) MACCLSEEAREQKRINQEIEKQLQRDKRNARRELKLLLLGTGESGKSTFIKQMRIIHGQGYSEEDKRAHIRLVYQNVFMAIQSMIRAMDTLDIKFGNESEELQEKAAVVREVDFESVTSFEEPYVSYIKELWEDSGIQECYDRRREYQLTDSAKYYLSDLRRLAVPDYLPTEQDILRVRVPTTGIIEYPFDLEQIIFRMVDVGGQRSERRKWIHCFENVTSIMFLVALSEYDQVLVECDNENRMEESKALFRTIITYPWFTNSSVILFLNKKDLLEEKILYSHLADYFPEYDGPPRDPIAAREFILKMFVDLNPDADKIIYSHFTCATDTENIRRVFNDCRDIIQRMHLRQYELL
3120
